Test system: HL-60
method: NCI tumour cell line growth inhibition, 48 h
Active and inactive are the calls of the source. Rule as the data show it: active = GI50 up to about 1.1 µM and inactive = higher.
Record form. Attribute: GI50. Fill in for each entry.

The compound listed as NCC1OC(n2cnc3c(=O)[nH]c(N)nc32)C(O)C1O (stereo unspecified) has a reported GI50 of > 100 µM (inactive)

Record C=C1C(=O)O[C@H]2C1C[C@@H](O)/C(C)=C/CC[C@@]1(C)O[C@H]21 (stereo partly specified) , field GI50: 2.87 µM (inactive)

Entry under test: CC(=O)OC1CCC2(C)C(CCC3C2CCC2(C)C(c4ccc(=O)oc4)C(OC(C)=O)CC32O)C1 (stereo unspecified) . Its GI50 was 0.0154 µM (active)

For record Cc1cccc2oc3c(c(=O)c12)CC(O)C(C)(C)O3 (stereo unspecified) the listed GI50 is 23.9 µM (inactive)

So for COc1ccc(C2S/C(=C\c3ccc(OC)cc3OC)C(=O)N2NC(=O)Cc2ccccc2)cc1 (stereo unspecified) , the logged GI50 turned out to be 97.9 µM (inactive)

In plain terms, CC(=O)CSCc1ccccn1 has a documented GI50 of 29.1 µM (inactive)

Please fill in: GI50 reported for C=CCN(Cc1ccncc1)C(=O)C(O)(c1ccccc1)c1ccccc1 = 35.3 µM (inactive)

The compound listed as CN(C)CCONC(=O)C12CC3CC(CC(C3)C1)C2 shows GI50 equal to > 100 µM (inactive)

Consider Cc1cc2c3c([nH]c2c2ccnc(C)c12)CCCC3 . Its measured GI50 is 1.69 µM (inactive)

Looking up NS(=O)(=O)c1ccc(Nc2c3ccccc3nc3c(C(=O)NCCCN(CCO)CCO)cccc23)cc1 , I see its GI50 listed as > 10 µM (inactive)

According to the records, this compound CC(=O)C(=[N+]=[N-])C(=O)NCC#N displays GI50 of > 10 µM (inactive)
